- METHOD NOTES: Ocular tissue and plasma pharmacokinetics, 50 mg/kg BID oral, Dutch Belted rabbits (Example 4/5)
- Format: in vivo
- TEST SETTINGS: male, Dutch Belted, rabbit, iris-ciliary body, po, 50 mg/kg, DB rabbit, 50 mg/kg BID oral, Day 15, 168 h; read-out: Mean Iris-Ciliary Body concentration
REPORTED ENDPOINT: concentration at 168 h (ng/g)
Answers are plain numbers, in ng/g.

Please report the recorded concentration at 168 h for `CC(=O)c1nn(CC(=O)N2C[C@H](F)C[C@H]2C(=O)Nc2cccc(Br)n2)c2ccc(-c3cnc(C)nc3)cc12` .
2290
